Tested on: NTSR1 linear L2-biotin protein
Test: Binding affinity of the humanized antibodies by ELISA
Parameters: species or system human
Conditions: FIG. 4
readout: binding signal for NTSR1 in binding ELISA

{"columns": ["molecule", "result"],
 "data": [
  ["7C3 HuHd: humanized anti-NTSR1 antibody, 7C3 HuVH paired with 7C3 HdVL (antibody, V domains shown) VH: QVQLVQSGAEVKKPGASVKVSCKASGYTFTSSWIHWVRQAPGQGLEWMGQIRPNSGNTYYNEKFKVRVTMTRDTSTSTVYMELSSLRSEDTAVYYCARYYYGFDYWGQGTLVTVSS VL: DIQMTQSPSSLSASVGDRVTITCRSSQSIVHSNGNTYLEWYQQKPGKAPKLLIYKVSNRFSGVPSRFSGSGSGTDFTLTISSLQPEDFATYYCFQGSHLPWTFGQGTKVEIK", "good binding signal"],
  ["7C3 HuHu: humanized anti-NTSR1 antibody, 7C3 HuVH (SEQ ID NO: 13) and 7C3 HuVL (SEQ ID NO: 14) (antibody, V domains shown) VH: QVQLVQSGAEVKKPGASVKVSCKASGYTFTSSWIHWVRQAPGQGLEWMGQIRPNSGNTYYNEKFKVRVTMTRDTSTSTVYMELSSLRSEDTAVYYCARYYYGFDYWGQGTLVTVSS VL: DIVMTQTPLSLSVTPGQPASISCRSSQSIVHSNGNTYLEWYLQKPGQSPQLLIYKVSNRFSGVPDRFSGSGSGTDFTLKISRVEAEDVGVYYCFQGSHLPWTFGQGTKVEIK", "good binding signal"]
]}

From: patent US12091454B2
